src = paper PMC5395182

Test system: TGT homodimer
Construct: Strep-tag II (N, cleaved yes); made in house; host or cells: Escherichia coli
experiment-description: Native ESI-MS of TGT:ligand 1:10 mixtures (dimer destabilization)
Set-up: species or system Zymomonas mobilis
settings: 2.5 µM TGT and 25 µM inhibitor (1:10), 1 M NH4Ac pH 7.5; without ligand 3.3 ± 0.7 %
Label rule, in plain words: Relative proportion of TGT monomers of 5% and up is t, under 5% is f.

The following molecules have reported results that may help.
Cc1ccc(CCc2c3nc[nH]c3cc3c(=O)[nH]c(N)nc23)cc1 | t
COc1ccc(CCc2c3nc[nH]c3cc3c(=O)[nH]c(N)nc23)cc1 | t
CNc1nc2c(CC[C@H]3O[C@@H](OC)[C@H](O)[C@@H]3OC)c3nc(N)[nH]c(=O)c3cc2[nH]1 | t
CNc1nc2c(CCNCC3CCCC3)c3nc(N)[nH]c(=O)c3cc2[nH]1 | f

Decide: is the reported value of Relative proportion of TGT monomers for Nc1nc2c(CCc3ccccc3)c3nc[nH]c3cc2c(=O)[nH]1 equal to or greater than 5%? t

Hello, I need to know if CNc1nc2cc3nc(N)[nH]c(=O)c3cc2[nH]1 has measured Relative proportion of TGT monomers not below 5%. Thanks! f

Decide: is the reported value of Relative proportion of TGT monomers for CNc1nc2c(CC[C@H]3O[C@@H](OC)[C@H](O)[C@@H]3O)c3nc(N)[nH]c(=O)c3cc2[nH]1 equal to or greater than 5%? t

# bool: Relative proportion of TGT monomers of CNc1nc2c(CCNCC3CCC(C#Cc4cccnc4)CC3)c3nc(N)[nH]c(=O)c3cc2[nH]1 (stereo not drawn) >= 5% t

Please check the record CNc1nc2c(CCNCC3CCCCC3)c3nc(N)[nH]c(=O)c3cc2[nH]1 and state if its Relative proportion of TGT monomers is at or above 5%. f

###

measured-target: Z. mobilis TGT (Zymomonas mobilis subsp. mobilis, UniProt P28720)
Construct: Strep-tag II (N, cleaved yes); made in house; host or cells: Escherichia coli
Sequence (P28720 whole entry): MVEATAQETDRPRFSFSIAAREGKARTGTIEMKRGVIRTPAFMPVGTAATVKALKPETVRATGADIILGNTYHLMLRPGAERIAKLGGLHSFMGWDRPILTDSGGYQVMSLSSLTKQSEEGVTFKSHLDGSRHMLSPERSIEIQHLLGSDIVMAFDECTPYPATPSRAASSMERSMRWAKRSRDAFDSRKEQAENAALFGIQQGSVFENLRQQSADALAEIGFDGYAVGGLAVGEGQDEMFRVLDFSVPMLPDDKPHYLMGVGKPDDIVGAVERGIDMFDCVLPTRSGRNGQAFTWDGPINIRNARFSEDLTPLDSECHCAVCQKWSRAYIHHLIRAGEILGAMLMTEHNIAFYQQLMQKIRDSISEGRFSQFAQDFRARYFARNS
experiment-description: TGT-catalyzed incorporation of radio-labeled guanine into tRNA (inhibition constants)
Type: biochemical
settings: determined in this study; competitive with respect to tRNA substrate; averaged over three measurements
assay-endpoint: pKi
Notebook: values listed as pKi are -log10 of the concentration (mol/L).

pKi reported for this compound CNc1nc2c(CCNCC3CCC(C#Cc4cccnc4)CC3)c3nc(N)[nH]c(=O)c3cc2[nH]1 (stereo not shown) [Inhibitor 4] : 6.71

###

measured-target: Z. mobilis TGT (Zymomonas mobilis subsp. mobilis, UniProt P28720)
Construct: Strep-tag II (N, cleaved yes); made in house; host or cells: Escherichia coli
experiment-description: Isothermal titration calorimetry (ITC) of ligand binding to TGT
settings: ITC, 298 K, direct titration
assay-endpoint: pKd
Scale for pKd: -log10 of concentration given in mol/L; no unit attached.

CNc1nc2c(CCNCC3CCCC3)c3nc(N)[nH]c(=O)c3cc2[nH]1 | 7.49

Now consider the entry below.
// sample CNc1nc2c(CC[C@H]3O[C@@H](OC)[C@H](O)[C@@H]3O)c3nc(N)[nH]c(=O)c3cc2[nH]1 , its pKd was 6.56
